Some compounds, each annotated with its measured solubility (mole fraction).
# MEASUREMENT CONTEXT: in water, 318.15 K
MEASURED PARAMETER: solubility (mole fraction)

- O=C([O-])CCP(=O)([O-])c1ccccc1.[Na+].[Na+]: 0.000912
- O=C(O)CCP(=O)([O-])c1ccccc1.[Na+]: 0.0248

* * *

# MEASUREMENT CONTEXT: in ethanol, 298.15 K
MEASURED PARAMETER: solubility (mole fraction)

- O=C(O)CCP(=O)([O-])c1ccccc1.[Na+]: 0.00076
- O=C([O-])CCP(=O)([O-])c1ccccc1.[Na+].[Na+]: 9.7e-05

* * *

# MEASUREMENT CONTEXT: in acetone, 298.15 K
MEASURED PARAMETER: solubility (mole fraction)

• O=C([O-])CCP(=O)([O-])c1ccccc1.[Na+].[Na+] = 3.89e-05
• O=C(O)CCP(=O)([O-])c1ccccc1.[Na+] = 0.00011

* * *

# MEASUREMENT CONTEXT: in ethyl acetate, 343.15 K
MEASURED PARAMETER: solubility (mole fraction)

• O=C(O)CCP(=O)([O-])c1ccccc1.[Na+] = 0.00602

* * *

# MEASUREMENT CONTEXT: in acetic acid, 318.15 K
Each entry below carries its recorded solubility (mole fraction).
MEASURED PARAMETER: solubility (mole fraction)

- O=C([O-])CCP(=O)([O-])c1ccccc1.[Na+].[Na+]: 0.000626
- O=C(O)CCP(=O)([O-])c1ccccc1.[Na+]: 0.0312

* * *

Form field: solubility (mole fraction) (one value per entry).
# MEASUREMENT CONTEXT: in ethanol, 323.15 K
MEASURED PARAMETER: solubility (mole fraction)

- O=C(O)CCP(=O)([O-])c1ccccc1.[Na+]: 0.00199
- O=C([O-])CCP(=O)([O-])c1ccccc1.[Na+].[Na+]: 0.000505

* * *

Collected solubility (mole fraction) values appear next to each entry.
# MEASUREMENT CONTEXT: in acetic acid, 328.15 K
MEASURED PARAMETER: solubility (mole fraction)

* O=C([O-])CCP(=O)([O-])c1ccccc1.[Na+].[Na+] | 0.000663
* O=C(O)CCP(=O)([O-])c1ccccc1.[Na+] | 0.0404

* * *

# MEASUREMENT CONTEXT: in acetic acid, 333.15 K
MEASURED PARAMETER: solubility (mole fraction)

- O=C([O-])CCP(=O)([O-])c1ccccc1.[Na+].[Na+]: 0.000703
- O=C(O)CCP(=O)([O-])c1ccccc1.[Na+]: 0.0471

* * *

# MEASUREMENT CONTEXT: in ethanol, 303.15 K
Consider the following compounds and their measured solubility (mole fraction) readings.
MEASURED PARAMETER: solubility (mole fraction)

- O=C([O-])CCP(=O)([O-])c1ccccc1.[Na+].[Na+]: 0.000138
- O=C(O)CCP(=O)([O-])c1ccccc1.[Na+]: 0.00095

* * *

# MEASUREMENT CONTEXT: in ethyl acetate, 313.15 K
MEASURED PARAMETER: solubility (mole fraction)

- O=C(O)CCP(=O)([O-])c1ccccc1.[Na+]: 0.00117

* * *

# MEASUREMENT CONTEXT: in water, 328.15 K
Measured solubility (mole fraction), listed per entry.
MEASURED PARAMETER: solubility (mole fraction)

* O=C(O)CCP(=O)([O-])c1ccccc1.[Na+] | 0.0277
* O=C([O-])CCP(=O)([O-])c1ccccc1.[Na+].[Na+] | 0.000915

* * *

Entries and their solubility (mole fraction) values follow.
# MEASUREMENT CONTEXT: in ethanol, 313.15 K
MEASURED PARAMETER: solubility (mole fraction)

* O=C([O-])CCP(=O)([O-])c1ccccc1.[Na+].[Na+] | 0.000264
* O=C(O)CCP(=O)([O-])c1ccccc1.[Na+] | 0.00122

* * *

# MEASUREMENT CONTEXT: in ethyl acetate, 328.15 K
MEASURED PARAMETER: solubility (mole fraction)

- O=C(O)CCP(=O)([O-])c1ccccc1.[Na+]: 0.00285

* * *

# MEASUREMENT CONTEXT: in ethanol, 328.15 K
MEASURED PARAMETER: solubility (mole fraction)

- O=C(O)CCP(=O)([O-])c1ccccc1.[Na+]: 0.00223
- O=C([O-])CCP(=O)([O-])c1ccccc1.[Na+].[Na+]: 0.000728

* * *

# MEASUREMENT CONTEXT: in acetone, 318.15 K
MEASURED PARAMETER: solubility (mole fraction)

• O=C(O)CCP(=O)([O-])c1ccccc1.[Na+] = 0.00051
• O=C([O-])CCP(=O)([O-])c1ccccc1.[Na+].[Na+] = 4.83e-05

* * *

# MEASUREMENT CONTEXT: in water, 333.15 K
Here, each record is paired with measured solubility (mole fraction) data.
MEASURED PARAMETER: solubility (mole fraction)

* O=C(O)CCP(=O)([O-])c1ccccc1.[Na+] | 0.0295
* O=C([O-])CCP(=O)([O-])c1ccccc1.[Na+].[Na+] | 0.000916

* * *

# MEASUREMENT CONTEXT: in water, 313.15 K
Listed here: items and their measured solubility (mole fraction).
MEASURED PARAMETER: solubility (mole fraction)

- O=C(O)CCP(=O)([O-])c1ccccc1.[Na+]: 0.0232
- O=C([O-])CCP(=O)([O-])c1ccccc1.[Na+].[Na+]: 0.000911

* * *

# MEASUREMENT CONTEXT: in ethanol, 293.15 K
MEASURED PARAMETER: solubility (mole fraction)

- O=C([O-])CCP(=O)([O-])c1ccccc1.[Na+].[Na+]: 7.03e-05
- O=C(O)CCP(=O)([O-])c1ccccc1.[Na+]: 0.00065

* * *

Measured solubility (mole fraction), listed per entry for reference.
# MEASUREMENT CONTEXT: in methanol, 293.15 K
MEASURED PARAMETER: solubility (mole fraction)

* O=C(O)CCP(=O)([O-])c1ccccc1.[Na+] | 0.00612
* O=C([O-])CCP(=O)([O-])c1ccccc1.[Na+].[Na+] | 2.2e-05

* * *

# MEASUREMENT CONTEXT: in acetone, 313.15 K
compounds and their reported solubility (mole fraction)
MEASURED PARAMETER: solubility (mole fraction)

• O=C([O-])CCP(=O)([O-])c1ccccc1.[Na+].[Na+] = 4.62e-05
• O=C(O)CCP(=O)([O-])c1ccccc1.[Na+] = 0.00035

* * *

# MEASUREMENT CONTEXT: in water, 298.15 K
Listed here: items and their measured solubility (mole fraction).
MEASURED PARAMETER: solubility (mole fraction)

• O=C([O-])CCP(=O)([O-])c1ccccc1.[Na+].[Na+] = 0.000906
• O=C(O)CCP(=O)([O-])c1ccccc1.[Na+] = 0.0201

* * *

# MEASUREMENT CONTEXT: in acetone, 323.15 K
MEASURED PARAMETER: solubility (mole fraction)

* O=C(O)CCP(=O)([O-])c1ccccc1.[Na+] | 0.00075
* O=C([O-])CCP(=O)([O-])c1ccccc1.[Na+].[Na+] | 5.24e-05

* * *

# MEASUREMENT CONTEXT: in ethyl acetate, 303.15 K
MEASURED PARAMETER: solubility (mole fraction)

* O=C(O)CCP(=O)([O-])c1ccccc1.[Na+] | 0.000685

* * *

# MEASUREMENT CONTEXT: in water, 308.15 K
MEASURED PARAMETER: solubility (mole fraction)

- O=C(O)CCP(=O)([O-])c1ccccc1.[Na+]: 0.0222
- O=C([O-])CCP(=O)([O-])c1ccccc1.[Na+].[Na+]: 0.000909

* * *

Attribute: solubility (mole fraction)
# MEASUREMENT CONTEXT: in ethanol, 333.15 K
MEASURED PARAMETER: solubility (mole fraction)

* O=C([O-])CCP(=O)([O-])c1ccccc1.[Na+].[Na+] | 0.000926
* O=C(O)CCP(=O)([O-])c1ccccc1.[Na+] | 0.00273

* * *

# MEASUREMENT CONTEXT: in methanol, 313.15 K
MEASURED PARAMETER: solubility (mole fraction)

* O=C(O)CCP(=O)([O-])c1ccccc1.[Na+] | 0.00831
* O=C([O-])CCP(=O)([O-])c1ccccc1.[Na+].[Na+] | 2.34e-05

* * *

# MEASUREMENT CONTEXT: in acetone, 293.15 K
MEASURED PARAMETER: solubility (mole fraction)

- O=C(O)CCP(=O)([O-])c1ccccc1.[Na+]: 7e-05
- O=C([O-])CCP(=O)([O-])c1ccccc1.[Na+].[Na+]: 3.66e-05
